testSummary: qHTS assay to identify small molecule antagonists of the estrogen receptor alpha (ER-alpha) signaling pathway using the BG1 cell line - cell viability counter screen (AID 743081);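 further: compound given together with 17beta-estradiol as the ER stimulus; nearly all actives have a fitted effect of over 45% in size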
testConditions: BG1Luc4E2 viability, CellTiter-Fluor, 22 h; series mostly up to 70.3 µM
Results filed as inconclusive are left out. Activity calls are given as the source filed them. The call rests on the fitted dose curve; in most records, active means well fitted cell-killing curve with a large enough effect in the repeat runs; inconclusive means weak or mixed curves, or effect the other way; inactive means flat fitted curve, though single readings scatter.

compound: Cc1ccc2cc(C)ccc2c1
activity change, negative = cytotoxicity: inactive
--
compound: NC(=O)CS(=O)C(c1ccccc1)c1ccccc1 (stereo unspecified)
activity change, negative = cytotoxicity: inactive
--
compound: NCCOS(=O)(=O)O
activity change, negative = cytotoxicity: inactive
--
compound: CCCN1CCC[C@@H]2Cc3nc(N)ncc3C[C@H]21
activity change, negative = cytotoxicity: inactive
--
compound: CC(C)(C)C(=O)C(Cl)Cl
activity change, negative = cytotoxicity: inactive
--
compound: CN(C)C1CCCCC1
activity change, negative = cytotoxicity: inactive
--
compound: CC1=C2[C@H]3OC(=O)[C@@H](C)[C@@H]3CC[C@@]2(C)C=CC1=O
activity change, negative = cytotoxicity: inactive
--
compound: COC(=O)c1ccccc1CS(=O)(=O)NC(=O)Nc1nc(OC)cc(OC)n1
activity change, negative = cytotoxicity: inactive
--
compound: C[C@@H](N)[C@@H](O)c1ccccc1
activity change, negative = cytotoxicity: inactive
--
compound: C=CC(=O)OCCN(C)C
activity change, negative = cytotoxicity: inactive
--
compound: COc1ccc(C=O)cc1O
activity change, negative = cytotoxicity: inactive
--
compound: CCOP(=O)(CN(CCO)CCO)OCC
activity change, negative = cytotoxicity: inactive
--
compound: OP(O)c1ccccc1
activity change, negative = cytotoxicity: inactive
--
compound: Cc1cccc2sc3nncn3c12
activity change, negative = cytotoxicity: inactive
--
compound: BrCc1ccc(Br)cc1
activity change, negative = cytotoxicity: inactive
--
compound: O=C1CC(=O)NC(=O)N1
activity change, negative = cytotoxicity: inactive
--
compound: CC(Cc1ccccc1)NCCn1cnc2c1c(=O)n(C)c(=O)n2C (stereo unspecified)
activity change, negative = cytotoxicity: inactive
--
compound: CCC(=O)c1ccc(Cl)cc1
activity change, negative = cytotoxicity: inactive
--
compound: CC(Cl)(Cl)Cl
activity change, negative = cytotoxicity: inactive
--
compound: O=CCCl
activity change, negative = cytotoxicity: inactive
--
compound: CCN(CC)C1CCCCC1
activity change, negative = cytotoxicity: inactive
--
compound: O=C(O)CBr
activity change, negative = cytotoxicity: inactive
--
compound: CCCCCCCC(=O)Cl
activity change, negative = cytotoxicity: inactive
--
compound: CCSC(=O)Cl
activity change, negative = cytotoxicity: inactive
--
compound: CCN(CC)CCOC(=O)C(O)(c1ccccc1)c1ccccc1
activity change, negative = cytotoxicity: inactive
--
compound: ClC1=C(Cl)C2(Cl)C(CBr)CC1(Cl)C2(Cl)Cl (stereo unspecified)
activity change, negative = cytotoxicity: inactive
--
compound: CCOC(=O)CCl
activity change, negative = cytotoxicity: inactive
--
compound: c1cncc([C@@H]2CCCCN2)c1
activity change, negative = cytotoxicity: inactive
--
compound: N#CN=C1SCCN1Cc1ccc(Cl)nc1
activity change, negative = cytotoxicity: inactive
--
compound: CC(=O)CN(CC(C)=O)N=O
activity change, negative = cytotoxicity: inactive
--
compound: CC(C)(C)NC[C@H](O)c1ccc(O)cc1Cl
activity change, negative = cytotoxicity: inactive
--
compound: O=P(O)(O)CN(CP(=O)(O)O)CP(=O)(O)O
activity change, negative = cytotoxicity: inactive
--
compound: COc1ccc2c(C(=O)c3ccc(Cl)cc3)c(C)n(CC(=O)O)c2c1
activity change, negative = cytotoxicity: inactive
--
compound: Cc1ccc(-c2nc3ccc(C)cn3c2CC(=O)N(C)C)cc1
activity change, negative = cytotoxicity: inactive
--
compound: O=C(Cl)C(Cl)Cl
activity change, negative = cytotoxicity: inactive
--
compound: COC(=O)c1ccc(CBr)cc1
activity change, negative = cytotoxicity: inactive
--
compound: CCCN1CCC[C@@H]2Cc3[nH]ncc3C[C@H]21
activity change, negative = cytotoxicity: inactive
--
compound: CC(C)NCC(O)c1ccc([N+](=O)[O-])cc1 (stereo unspecified)
activity change, negative = cytotoxicity: inactive
--
compound: O=[N+]([O-])CCO
activity change, negative = cytotoxicity: inactive
--
compound: O=C(Cl)c1ccccc1
activity change, negative = cytotoxicity: inactive
--
compound: CN(C)CCN(C)C
activity change, negative = cytotoxicity: inactive
--
compound: CC(C)[N+](C)(CCC(C(N)=O)(c1ccccc1)c1ccccc1)C(C)C
activity change, negative = cytotoxicity: inactive
--
compound: CC(C)(C)C(=O)Cl
activity change, negative = cytotoxicity: inactive
--
compound: CC(=O)OCC1=C(C(=O)O)N2C(=O)[C@@H](N)[C@H]2SC1
activity change, negative = cytotoxicity: inactive
--
compound: CCOC(=O)C(Cl)Cc1cc(-n2nc(C)n(C(F)F)c2=O)c(F)cc1Cl (stereo unspecified)
activity change, negative = cytotoxicity: inactive
--
compound: C(COCC1CO1)OCC1CO1 (stereo unspecified)
activity change, negative = cytotoxicity: inactive
--
compound: Cc1ccc(Cl)c(O)c1
activity change, negative = cytotoxicity: inactive
--
compound: CCCCS(=O)(=O)Cl
activity change, negative = cytotoxicity: inactive
--
compound: CS(=O)(=O)c1ccc(C(=O)C2C(=O)CCCC2=O)c(Cl)c1COCC(F)(F)F
activity change, negative = cytotoxicity: inactive
--
compound: CCOC(=O)Nc1cccc(OC(=O)Nc2ccccc2)c1
activity change, negative = cytotoxicity: inactive
--
compound: O=P(O)(O)c1ccccc1
activity change, negative = cytotoxicity: inactive
--
compound: BrCCc1ccccc1
activity change, negative = cytotoxicity: inactive
--
compound: CNC(=O)O/N=C(/CSC)C(C)(C)C
activity change, negative = cytotoxicity: inactive
--
compound: O=C(NC(O)C(Cl)(Cl)Cl)NC(O)C(Cl)(Cl)Cl (stereo unspecified)
activity change, negative = cytotoxicity: inactive
--
compound: C=CC=O
activity change, negative = cytotoxicity: inactive
--
compound: CCOC(=O)CC(SP(=S)(OC)OC)C(=O)OCC (stereo unspecified)
activity change, negative = cytotoxicity: inactive
--
compound: C/C=C/CC#N
activity change, negative = cytotoxicity: inactive
--
compound: ClCC1CO1 (stereo unspecified)
activity change, negative = cytotoxicity: inactive
--
compound: CCC(=O)OC1(c2ccccc2)CCN(C)CC1
activity change, negative = cytotoxicity: inactive
--
compound: CCOP(=S)(OCC)Oc1ccc(Cl)cc1Cl
activity change, negative = cytotoxicity: inactive
--
compound: CN(C)C(=O)Oc1cc(OC(=O)N(C)C)cc(C(O)CNC(C)(C)C)c1 (stereo unspecified)
activity change, negative = cytotoxicity: inactive

Source of measurements: PubChem BioAssay (Tox21)
